MIC values by entry
tested on: Staphylococcus epidermidis; assay: Antibacterial activity against Staphylococcus epidermidis ATCC 35984 after 24 hrs by broth microdilution method; assay type: functional; conditions: RP62A
Provide the reading as a plain figure in µg/mL.

The following compounds have reported results that may help.
- SMILES_TEXT: "NCC(=O)Nc1ccc(-n2nc(C(F)(F)F)cc2-c2ccc3c(c2)oc2ccccc23)cc1"
  MIC, µg/mL: 4
- SMILES_TEXT: "NCC(=O)Nc1ccc(-n2nc(C(F)(F)F)cc2-c2ccc3c(ccc4ccccc43)c2)cc1"
  MIC, µg/mL: 4
- SMILES_TEXT: "CC1(C)S[C@@H]2[C@H](NC(=O)[C@H](N)c3ccccc3)C(=O)N2[C@H]1C(=O)O"
  MIC, µg/mL: 64
- SMILES_TEXT: "NC(=O)c1ccc(-n2nc(C(F)(F)F)cc2-c2c3ccccc3cc3ccccc23)cc1"
  MIC, µg/mL: 2
- SMILES_TEXT: "NCCC(=O)Nc1ccc(-n2nc(C(F)(F)F)cc2-c2ccc(-c3ccc(C(F)(F)F)cc3)cc2)cc1"
  MIC, µg/mL: 4
- SMILES_TEXT: "NCCC(=O)Nc1ccc(-n2nc(C(F)(F)F)cc2-c2ccc3c(c2)Nc2ccccc2S3)cc1"
  MIC, µg/mL: 4
- SMILES_TEXT: "NCCCC[C@H](N)C(=O)Nc1ccc(-n2nc(C(F)(F)F)cc2-c2ccc(-c3ccc(C(F)(F)F)cc3)cc2)cc1"
  MIC, µg/mL: 4
- SMILES_TEXT: "NS(=O)(=O)Nc1ccc(-n2nc(C(F)(F)F)cc2-c2c3ccccc3cc3ccccc23)cc1"
  MIC, µg/mL: 1

[in] Fill in: MIC of `NS(=O)(=O)c1ccc(-n2nc(C(F)(F)F)cc2-c2ccc(-c3ccc(Cl)cc3)cc2)cc1` is ___
[out] 8

[in] MIC lookup needed for `NCCC(=O)Nc1ccc(-n2nc(C(F)(F)F)cc2-c2ccc3c(ccc4ccccc43)c2)cc1` , thanks.
[out] 4

[in] Which measured MIC value corresponds to `NS(=O)(=O)Nc1ccc(-n2nc(C(F)(F)F)cc2-c2ccc3c(ccc4ccccc43)c2)cc1` ?
[out] 2
